test: HEp-2 cell cytotoxicity, dose response, cytotoxicity control for RSV inhibitor project, HTS (AID 2410); assay type: functional; details: human respiratory syncytial virus
Active and inactive are the calls of the source. No rule for the calls is given here.
recorded_endpoint: CC50

[[record]]
compound = "COc1cccc(Nc2nc(N)nc(C(F)(F)F)n2)c1"
recorded_endpoint = "CC50"
endpoint_value = "20.4 µM (active)"

[[record]]
compound = "Cn1c2c(c3ccccc31)CCSC2=O"
recorded_endpoint = "CC50"
endpoint_value = "> 50 µM (active)"

[[record]]
compound = "CCN(c1ccccc1)S(=O)(=O)c1ccc(OC)c(NC(=O)Cc2ccccc2OC)c1"
recorded_endpoint = "CC50"
endpoint_value = "> 50 µM (active)"

[[record]]
compound = "O=S(=O)(c1ccccc1)N1CCCC(c2nc(O)c3nnn(Cc4ccc5c(c4)OCCO5)c3n2)C1 (stereo not drawn)"
recorded_endpoint = "CC50"
endpoint_value = "16.9 µM (active)"

[[record]]
compound = "COc1cc2c(cc1OC)C(C)N(C(=O)c1cc3ccccc3o1)CC2 (stereo not drawn)"
recorded_endpoint = "CC50"
endpoint_value = "17.7 µM (active)"

[[record]]
compound = "O=C(c1ccc([N+](=O)[O-])o1)N1CCN(c2nc3c(Cl)cccc3s2)CC1"
recorded_endpoint = "CC50"
endpoint_value = "> 50 µM (active)"

[[record]]
compound = "CC(=O)c1ccc2c(c1)Nc1ccccc1S2"
recorded_endpoint = "CC50"
endpoint_value = "18.5 µM (active)"

[[record]]
compound = "O=C1CCSc2ccc(Cl)cc2N1Cc1cccc(Cl)c1"
recorded_endpoint = "CC50"
endpoint_value = "35.5 µM (active)"

